binding intensity score (0-4) by entry:
# TESTED_TARGET: T1, recombinant human integrin αvβ8 (human, UniProt P06756 31-992; P26012 43-684)
# T1 construct: also called Human Integrin alpha V beta 8; purified recombinant αvβ8
# T1 sequence (P06756 31-992 limits assumed, chain 1 of 2): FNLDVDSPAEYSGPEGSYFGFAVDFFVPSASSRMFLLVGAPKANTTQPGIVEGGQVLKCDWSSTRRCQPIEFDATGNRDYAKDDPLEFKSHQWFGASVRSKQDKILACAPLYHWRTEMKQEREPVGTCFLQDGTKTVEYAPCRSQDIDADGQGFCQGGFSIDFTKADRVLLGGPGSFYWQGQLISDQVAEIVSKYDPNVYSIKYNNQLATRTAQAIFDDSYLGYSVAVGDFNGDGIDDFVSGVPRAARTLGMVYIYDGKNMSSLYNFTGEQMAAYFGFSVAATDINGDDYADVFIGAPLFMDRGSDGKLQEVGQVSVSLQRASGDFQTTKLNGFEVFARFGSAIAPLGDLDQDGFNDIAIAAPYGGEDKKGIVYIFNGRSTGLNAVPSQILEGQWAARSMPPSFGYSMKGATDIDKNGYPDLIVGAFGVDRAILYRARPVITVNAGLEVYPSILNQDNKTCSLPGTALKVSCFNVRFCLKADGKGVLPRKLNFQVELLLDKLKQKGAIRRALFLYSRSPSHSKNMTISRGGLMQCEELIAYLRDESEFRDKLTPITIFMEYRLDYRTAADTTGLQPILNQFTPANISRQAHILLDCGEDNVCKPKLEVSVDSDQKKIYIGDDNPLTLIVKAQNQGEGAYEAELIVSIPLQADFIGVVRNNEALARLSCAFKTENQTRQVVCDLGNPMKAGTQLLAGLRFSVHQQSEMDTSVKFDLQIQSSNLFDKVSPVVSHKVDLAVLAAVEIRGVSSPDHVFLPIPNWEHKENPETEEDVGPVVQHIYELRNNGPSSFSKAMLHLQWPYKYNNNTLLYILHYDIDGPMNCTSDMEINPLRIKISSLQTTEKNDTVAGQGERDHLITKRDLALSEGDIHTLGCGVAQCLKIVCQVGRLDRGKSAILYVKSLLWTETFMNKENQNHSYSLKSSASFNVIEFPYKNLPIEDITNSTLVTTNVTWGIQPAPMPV
# T1 sequence (P26012 43-684 limits assumed, chain 2 of 2): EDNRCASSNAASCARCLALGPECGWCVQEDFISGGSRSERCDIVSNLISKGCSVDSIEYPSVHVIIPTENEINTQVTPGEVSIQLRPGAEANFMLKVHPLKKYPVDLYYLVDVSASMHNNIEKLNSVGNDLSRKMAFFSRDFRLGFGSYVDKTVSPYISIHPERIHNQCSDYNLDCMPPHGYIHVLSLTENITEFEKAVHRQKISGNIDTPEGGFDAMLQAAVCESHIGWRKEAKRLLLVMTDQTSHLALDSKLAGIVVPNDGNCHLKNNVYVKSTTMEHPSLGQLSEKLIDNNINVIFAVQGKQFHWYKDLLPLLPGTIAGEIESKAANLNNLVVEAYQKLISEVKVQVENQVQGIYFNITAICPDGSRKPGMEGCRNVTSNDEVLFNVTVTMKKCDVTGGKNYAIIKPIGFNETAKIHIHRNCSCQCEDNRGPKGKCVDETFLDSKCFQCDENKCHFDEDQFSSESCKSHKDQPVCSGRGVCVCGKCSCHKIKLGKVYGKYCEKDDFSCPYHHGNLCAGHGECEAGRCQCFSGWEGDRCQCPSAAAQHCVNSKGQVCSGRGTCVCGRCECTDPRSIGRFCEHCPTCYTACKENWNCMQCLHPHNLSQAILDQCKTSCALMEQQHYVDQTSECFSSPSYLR
# ASSAY_PROCEDURE: ELISA: integrin coated on plate, supernatant of transfected 293 cells at 1/10 dilution, anti-mouse IgG-HRP; score normalized to expression;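 also: scale runs from 0 (no apparent binding) to 4 (robust binding), with scores adjusted for clone protein expression as determined by a murine IgG ELISA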
Response body: numeric value in score 0-4, unit text excluded.

>>> reported_value("C6 VH / RGD3-3 Vk murine IgG (antibody, V domains shown, Murine IgG, supernatant of 293 cells; CDRL1 swap into the C6D4 murine IgG vector, VH not altered; also called C6RGD3-3) VH: QIQLLQSGPELKKPGETVKISCKASGYTFTDYSMHWVKQAPGKGLKWVARINTETGEPTFADDFRGRFAVSLETSASTAYLQINNLKNEDTATYFCAIFYYGRDSWGQGTTLTVSS VL: DIVMTQSPSSLAVSAGEKVTMSCKSSQSLLGRGDLGRLKKQKNALAWYQQKPGQSPRLLIYWASTRESGVPDRFTGSGSGTDFTLTISSVQAEDLAVYYCKQSYNLLSFGAGTKLELKR")
4
>>> reported_value("C6D4-RGD3 (antibody, V domains shown, also called CD64-RGD3; C6 / RGD3) VH: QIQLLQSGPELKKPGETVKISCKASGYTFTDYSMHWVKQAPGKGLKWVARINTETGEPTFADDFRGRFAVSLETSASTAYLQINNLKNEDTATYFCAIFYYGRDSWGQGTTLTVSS VL: DIVMTQSPSSLAVSAGEKVTMSCKSSQSLLGRGDLGRLKKNALAWYQQKPGQSPRLLIYWASTRESGVPDRFTGSGSGTDFTLTISSVQAEDLAVYYCKQSYNLLSFGAGTKLELKR")
4

Reported binding intensity score (0-4) for C6 VH / RGD3-4 Vk murine IgG (antibody, V domains shown, Murine IgG, supernatant of 293 cells; CDRL1 swap into the C6D4 murine IgG vector, VH not altered; also called C6RGD3-4) VH: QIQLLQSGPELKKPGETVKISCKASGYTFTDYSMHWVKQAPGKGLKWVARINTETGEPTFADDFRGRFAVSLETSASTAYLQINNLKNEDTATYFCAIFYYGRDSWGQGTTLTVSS VL: DIVMTQSPSSLAVSAGEKVTMSCKSSQSLLGRGDLGRLKKQNALAWYQQKPGQSPRLLIYWASTRESGVPDRFTGSGSGTDFTLTISSVQAEDLAVYYCKQSYNLLSFGAGTKLELKR : what is it?
4

Just for reference, patent US20210230279A1 is where these values come from.
